Record set of log10 of IC50 for target or system Acetylcholinesterase (Electrophorus electricus).
A value of 2 here means IC50 of 100 in nM, since values are log10.

Answered cases to consult:
{"test smiles": "COc1ccc(CNCCCCNc2c3c(nc4ccccc24)CCCC3)cc1OC", "tested target": "Acetylcholinesterase (Electrophorus electricus)", "log10 of IC50": 2.56}
{"test smiles": "O=C(NCCCCCCCCNc1c2c(nc3ccccc13)CCCC2)c1ccncc1", "tested target": "Acetylcholinesterase (Electrophorus electricus)", "log10 of IC50": 1.59}
{"test smiles": "Oc1ccc(CNCCCCCCNc2c3c(nc4ccccc24)CCCC3)cc1", "tested target": "Acetylcholinesterase (Electrophorus electricus)", "log10 of IC50": 1.41}
{"test smiles": "COc1cc(CNCCCCCCCCNc2c3c(nc4ccccc24)CCCC3)cc(OC)c1O", "tested target": "Acetylcholinesterase (Electrophorus electricus)", "log10 of IC50": 0.66}
{"test smiles": "c1ccc2c(NCCCCCCCCNCc3ccc4c(c3)OCO4)c3c(nc2c1)CCCC3", "tested target": "Acetylcholinesterase (Electrophorus electricus)", "log10 of IC50": 0.79}
{"test smiles": "COc1cc(CNCCCCCCNc2c3c(nc4ccccc24)CCCC3)ccc1O", "tested target": "Acetylcholinesterase (Electrophorus electricus)", "log10 of IC50": 1.64}

Turning now to a further molecule:
Problem: Consider the molecule Oc1ccc(CNCCCCCCCCNc2c3c(nc4ccccc24)CCCC3)cc1 and give its measured log10 of IC50.
Result: 0.87

---

- tested target: Cholinesterase (Equus caballus)
- Sequence (P81908 whole entry): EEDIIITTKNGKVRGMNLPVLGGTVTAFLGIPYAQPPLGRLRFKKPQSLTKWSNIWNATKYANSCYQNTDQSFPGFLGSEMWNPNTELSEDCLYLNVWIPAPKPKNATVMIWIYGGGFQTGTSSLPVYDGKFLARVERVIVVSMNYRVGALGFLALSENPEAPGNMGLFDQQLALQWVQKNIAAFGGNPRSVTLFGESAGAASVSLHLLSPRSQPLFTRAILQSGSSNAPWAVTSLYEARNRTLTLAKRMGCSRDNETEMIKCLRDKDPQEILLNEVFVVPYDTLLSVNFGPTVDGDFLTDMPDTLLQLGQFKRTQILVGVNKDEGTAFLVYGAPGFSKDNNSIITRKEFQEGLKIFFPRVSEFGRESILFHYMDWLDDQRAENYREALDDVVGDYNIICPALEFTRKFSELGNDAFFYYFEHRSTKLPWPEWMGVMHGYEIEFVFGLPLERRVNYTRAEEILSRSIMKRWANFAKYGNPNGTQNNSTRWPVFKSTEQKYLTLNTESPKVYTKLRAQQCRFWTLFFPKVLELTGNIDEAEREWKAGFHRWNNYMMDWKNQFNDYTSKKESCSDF
Mark TRUE for IC50 under 5 nM, FALSE if at or over.

{"test smiles": "COc1cc(CNCCCCCCNc2c3c(nc4ccccc24)CCCC3)ccc1O", "class": "FALSE"}
{"test smiles": "Oc1ccc(CNCCCCCCNc2c3c(nc4ccccc24)CCCC3)cc1", "class": "FALSE"}
{"test smiles": "c1ccc2c(NCCCCCCCCNCc3ccncc3)c3c(nc2c1)CCCC3", "class": "TRUE"}
{"test smiles": "c1ccc2c(NCCCCCCCCNCc3ccc4c(c3)OCO4)c3c(nc2c1)CCCC3", "class": "TRUE"}
{"test smiles": "Oc1ccccc1CNCCCCCCCCNc1c2c(nc3ccccc13)CCCC2", "class": "FALSE"}
{"test smiles": "COc1cc(CNCCCCCCCCNc2c3c(nc4ccccc24)CCCC3)cc(OC)c1O", "class": "TRUE"}
{"test smiles": "COc1ccc(CNCCCCCNc2c3c(nc4ccccc24)CCCC3)cc1OC", "class": "FALSE"}
{"test smiles": "Oc1ccc(CNCCCCCCCCNc2c3c(nc4ccccc24)CCCC3)cc1", "class": "FALSE"}

Problem: Given the entry COc1cc(CNCCCCCCCCNc2c3c(nc4ccccc24)CCCC3)ccc1O , would its reported IC50 be below 5 nM?
Result: TRUE

Problem: Now give it for COc1ccc(CNCCCCCCCCNc2c3c(nc4ccccc24)CCCC3)cc1 too.
Result: TRUE

Problem: Entry to check: COc1ccc(CNCCCCNc2c3c(nc4ccccc24)CCCC3)cc1OC
Result: FALSE

Problem: Note, next up: O=C(NCCCCCCCCNc1c2c(nc3ccccc13)CCCC2)c1ccncc1
Result: FALSE

---

List of pIC50 tested on Acetylcholinesterase (Electrophorus electricus, UniProt O42275).
Sequence (O42275 whole entry): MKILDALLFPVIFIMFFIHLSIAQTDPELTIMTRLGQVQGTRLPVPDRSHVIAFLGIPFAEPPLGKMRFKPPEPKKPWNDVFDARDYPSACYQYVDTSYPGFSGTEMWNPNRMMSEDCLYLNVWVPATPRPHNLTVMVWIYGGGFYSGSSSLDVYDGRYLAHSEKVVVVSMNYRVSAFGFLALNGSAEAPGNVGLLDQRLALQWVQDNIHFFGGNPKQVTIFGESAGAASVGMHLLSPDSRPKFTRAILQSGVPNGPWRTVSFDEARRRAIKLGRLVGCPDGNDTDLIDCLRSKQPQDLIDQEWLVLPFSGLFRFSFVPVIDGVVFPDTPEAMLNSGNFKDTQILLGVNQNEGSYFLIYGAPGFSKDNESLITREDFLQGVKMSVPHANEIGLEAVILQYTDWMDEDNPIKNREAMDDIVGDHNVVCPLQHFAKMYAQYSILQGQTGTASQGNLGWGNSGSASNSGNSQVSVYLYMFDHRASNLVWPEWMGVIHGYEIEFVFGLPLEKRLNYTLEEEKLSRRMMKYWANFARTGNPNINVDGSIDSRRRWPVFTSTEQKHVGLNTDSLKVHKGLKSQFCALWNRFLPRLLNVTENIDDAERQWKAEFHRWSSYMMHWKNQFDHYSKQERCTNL
Bear in mind: pIC50 is minus log10 of a mol/L concentration; give just that figure.

See these solved cases before continuing.
{"test smiles": "Oc1cccc(CNCCCCCCCCNc2c3c(nc4ccccc24)CCCC3)c1", "tested target": "Acetylcholinesterase (Electrophorus electricus, UniProt O42275)", "pIC50": 7.82}
{"test smiles": "c1ccc2c(NCCCCCCCCNCc3ccncc3)c3c(nc2c1)CCCC3", "tested target": "Acetylcholinesterase (Electrophorus electricus, UniProt O42275)", "pIC50": 8.33}
{"test smiles": "COc1cc(CNCCCCCCCCNc2c3c(nc4ccccc24)CCCC3)ccc1O", "tested target": "Acetylcholinesterase (Electrophorus electricus, UniProt O42275)", "pIC50": 8.34}
{"test smiles": "COc1ccc(CNCCCCCNc2c3c(nc4ccccc24)CCCC3)cc1OC", "tested target": "Acetylcholinesterase (Electrophorus electricus, UniProt O42275)", "pIC50": 6.98}
{"test smiles": "COc1ccc(CNCCCCCCCCNc2c3c(nc4ccccc24)CCCC3)cc1", "tested target": "Acetylcholinesterase (Electrophorus electricus, UniProt O42275)", "pIC50": 7.82}

Problem: What value of measured pIC50 is listed for Oc1ccccc1CNCCCCCCCCNc1c2c(nc3ccccc13)CCCC2 ?
Result: 7.90

---

- protocol details: Inhibition of amyloid beta (1 to 42) self-aggregation at 20 uM after 48 hrs by thioflavin T fluorescent dye assay
Calls of active or inactive are those of the source. The rule behind the calls is not given here.

{"test smiles": "COc1ccc(CNCCCCNc2c3c(nc4ccccc24)CCCC3)cc1OC", "inhibition": "Active"}
{"test smiles": "COc1cc(CNCCCCCCCCNc2c3c(nc4ccccc24)CCCC3)ccc1O", "inhibition": "71%"}
{"test smiles": "COc1ccc(CNCCCCCCNc2c3c(nc4ccccc24)CCCC3)cc1OC", "inhibition": "Active"}
{"test smiles": "COc1cc(/C=C/C(=O)CC(=O)/C=C/c2ccc(O)c(OC)c2)ccc1O", "inhibition": "50%"}
